B1: VH:VL chains; a variant is named by its letters at X, in order (parent)
chain 1: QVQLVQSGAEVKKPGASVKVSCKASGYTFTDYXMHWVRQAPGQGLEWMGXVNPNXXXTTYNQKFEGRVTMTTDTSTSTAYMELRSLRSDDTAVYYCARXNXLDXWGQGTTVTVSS
chain 2: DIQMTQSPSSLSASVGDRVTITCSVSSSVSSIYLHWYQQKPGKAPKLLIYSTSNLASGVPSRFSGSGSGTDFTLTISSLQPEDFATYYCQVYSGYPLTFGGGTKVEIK

- Variants of: B1
- test-name: yeast display scFab, FACS + sequencing
- condition: with MET
The list shows a part of the results. The true hit rate is not given.
result-type: antigen binding call

YRGRSAGY; binds
SKKRGSWD; binds
YEGAASWF; no binding
VKGASDVV; no binding
FRGKGSWD; binds

Enquiry: Entry YRAKGSWD needs its antigen binding call filled in; supply it.
Return: binds

Enquiry: Query antigen binding call for YRERAAGY
Return: binds

Enquiry: Using the record for VTGGDSLV , state its measured antigen binding call.
Return: no binding

The origin of these recorded values is the emibetuzumab library of Makowski et al. (2022).
